study target: T1, recombinant human Her2/ErbB2 Fc Tag (ACROBiosystems) (human, UniProt P04626 23-652)
T1 construct: Bought product; Captured on protein A biosensors; also called HER2-Fc; not shown: Fc tag of the bought product
method summary: BLI (Octet-HTX), HER2-Fc captured on protein A biosensors, sdAb in solution, 37 C
Quick reference: koff of the listed items.
Your answer is read as s⁻¹, so omit the unit and give the number.

For orientation, consider the following solved cases.
anti-HER2 humanized synthetic single domain antibody sdAb no 5 (VHH, Purified sdAb in BLI; also called sdAb 5; hsdAb 5) VHH: EVQLQASGGGFVQPGGSLRLSCAASGYTFSEETMGWFRQAPGKEREFVSAISWNHTFFEYYADSVKGRFTISRDNSKNTVYLQMNSLRAEDTATYYCAVTPLPPNKAYWGQGTQVTVSS
0.0015
anti-HER2 humanized synthetic single domain antibody sdAb no 4 (VHH, Purified sdAb in BLI; Any tag is not described for this assay; also called sdAb 4) VHH: EVQLQASGGGFVQPGGSLRLSCAASGYTSRESGMGWFRQAPGKEREFVSAISRDQDGISYYADSVKGRFTISRDNSKNTVYLQMNSLRAEDTATYYCAMIPLTRNAKYWGQGTQVTVSS
0.0076
anti-HER2 humanized synthetic single domain antibody sdAb no 6 (VHH, Purified sdAb in BLI; Any tag is not described for this assay; also called sdAb 6) VHH: EVQLQASGGGFVQPGGSLRLSCAASGRGYTGTTMGWFRQAPGKEREFVSAISWTSNQTSYYADSVKGRFTISRDNSKNTVYLQMNSLRAEDTATYYCAMMPLPRWKGYWGQGTQVTVSS
0.0066

Can you look up the measured koff of anti-HER2 humanized synthetic single domain antibody sdAb no 2 (VHH, Purified sdAb in BLI; also called sdAb 2; hsdAb 2) VHH: EVQLQASGGGFVQPGGSLRLSCAASGDSYNESSMGWFRQAPGKEREFVSAISARGNHPLYYADSVKGRFTISRDNSKNTVYLQMNSLRAEDTATYYCASMPMPKWKKYWGQGTQVTVSS for me?
0.0049

// same read-out, input: anti-HER2 humanized synthetic single domain antibody sdAb no 1 (VHH, Purified sdAb in BLI; also called sdAb 1; hsdAb1) VHH: EVQLQASGGGFVQPGGSLRLSCAASGATSNISNMGWFRQAPGKEREFVSAISRAESRPLYYADSVKGRFTISRDNSKNTVYLQMNSLRAEDTATYYCAYMPLVRHKAYWGQGTQVTVSS
0.004
